# SYSTEM_UNDER_TEST: Glyceraldehyde-3-phosphate dehydrogenase (Oryctolagus cuniculus) (UniProt P46406)
# Sequence (P46406 whole entry, looked up): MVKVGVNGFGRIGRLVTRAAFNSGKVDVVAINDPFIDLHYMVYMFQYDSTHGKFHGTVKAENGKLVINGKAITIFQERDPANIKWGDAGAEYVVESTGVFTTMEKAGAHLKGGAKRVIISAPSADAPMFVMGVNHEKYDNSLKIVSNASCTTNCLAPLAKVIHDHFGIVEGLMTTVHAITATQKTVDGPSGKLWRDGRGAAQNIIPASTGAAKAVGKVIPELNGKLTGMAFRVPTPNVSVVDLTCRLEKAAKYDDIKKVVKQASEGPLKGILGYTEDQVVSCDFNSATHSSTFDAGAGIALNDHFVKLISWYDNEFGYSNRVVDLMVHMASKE
# PROTOCOL: Induction of rabbit GAPDH tetramer segregation into monomers at 10 uM after 30 mins by SDS-PAGE
The source made the active and inactive calls. The calls are words filed in the database; no cut-off is given here.
Labels: active, inactive

>>> category_label("CCCCNc1nc(NCCOCCOCCNC(=O)c2ccccc2)nc(NCc2ccccn2)n1")
"inactive"
>>> category_label("O=C(NCCOCCOCCNc1nc(NCCc2ccc(O)c(O)c2)nc(Nc2ccccc2)n1)c1ccccc1")
"active"
>>> category_label("NCCc1cc(O)c(O)cc1O [OXIDOPAMINE]")
"inactive"
>>> category_label("C#CCN(C)[C@H](C)Cc1ccccc1")
"inactive"
